# Subject of test: C5a anaphylatoxin chemotactic receptor 1 (Homo sapiens)
# Assay info: Antagonist activity at C5a receptor in human MDM cells assessed as inhibition of C5a-induced intracellular calcium release preincubated for 30 mins followed by C5a addition and measured at 1 sec interval for => 200 secs by Fluo-3 AM dye-based FLIPR assay
# Assay type: functional, cell-based
The source made the active and inactive calls. The calls are words filed in the database; no cut-off is given here.
Would you mind answering with one of these outcomes? 1 (active), 0 (inactive)

Worked set:
Item smiles	Assigned class
CC(=O)N[C@@H](Cc1ccccc1)C(=O)N[C@H]1CCCNC(=O)[C@H](CCCN=C(N)N)NC(=O)[C@H](Cc2c[nH]c3ccccc23)NC(=O)[C@@H](CC2CCCCC2)NC(=O)[C@@H]2CCCN2C1=O	1
Cc1cc(C(c2ccc(Cl)cc2)c2ccc(Cl)cc2)sc1C(=O)N[C@@H](CCCNC(=N)N)C(=O)O	0
Cc1cc(C(c2ccccc2)c2ccccc2)sc1C(=O)N[C@@H](CCCNC(=N)N)C(=O)O	0

Input: Field: outcome | Entry: N=C(N)NCCC[C@H](NC(=O)c1ccc(C(c2ccccc2)c2ccccc2)s1)C(=O)O
Output: 0

----------
# Subject of test: C3a anaphylatoxin chemotactic receptor (Homo sapiens, UniProt Q16581)
# Sequence (Q16581 whole entry): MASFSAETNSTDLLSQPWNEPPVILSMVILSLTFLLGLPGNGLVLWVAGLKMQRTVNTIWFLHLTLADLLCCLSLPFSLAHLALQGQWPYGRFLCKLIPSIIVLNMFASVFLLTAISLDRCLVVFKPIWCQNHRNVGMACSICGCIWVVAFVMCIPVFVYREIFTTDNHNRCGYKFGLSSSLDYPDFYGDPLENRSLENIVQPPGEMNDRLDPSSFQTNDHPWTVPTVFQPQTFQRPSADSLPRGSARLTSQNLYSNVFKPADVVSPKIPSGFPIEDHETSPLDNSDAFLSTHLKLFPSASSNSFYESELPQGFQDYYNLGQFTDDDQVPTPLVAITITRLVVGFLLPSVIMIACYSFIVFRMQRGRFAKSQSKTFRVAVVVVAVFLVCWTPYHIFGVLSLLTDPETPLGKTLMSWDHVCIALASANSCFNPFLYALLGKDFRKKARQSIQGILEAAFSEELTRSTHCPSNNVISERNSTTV
# Assay info: Antagonist activity at C3a receptor in human MDM cells assessed as inhibition of C3a-induced intracellular calcium release preincubated for 30 mins followed by C3a addition and measured at 1 sec interval for => 200 secs by Fluo-3 AM dye-based FLIPR assay
# Type: functional, cell-based
# Test conditions: read-out: IC50
Observation type: pIC50
Numbers only, as −log10 of the molar value.

The following compounds have reported results that may help.
Compound	Observation type	Recorded measurement
N=C(N)NCCC[C@H](NC(=O)c1ccc(C(Cc2ccccc2)Cc2ccccc2)s1)C(=O)O	pIC50	7.00
CCC(c1ccccc1)c1ccc(C(=O)N[C@@H](CCCNC(=N)N)C(=O)O)s1 (mixture of isomers)	pIC50	5.64
N=C(N)NCCC[C@H](NC(=O)c1ccc(C(c2ccc(F)cc2)c2ccc(F)cc2)s1)C(=O)O	pIC50	7.00

Below are 5 compounds. Give each one its pIC50.
1. Cc1cc(C(=O)N[C@@H](CCCNC(=N)N)C(=O)O)sc1C(c1ccccc1)c1ccccc1
2. Cc1cc(C(c2cccc(Cl)c2)c2cccc(Cl)c2)sc1C(=O)N[C@@H](CCCNC(=N)N)C(=O)O
3. N=C(N)NCCC[C@H](NC(=O)c1ccc(C(c2ccccc2)c2ccccn2)s1)C(=O)O (mixture of isomers)
4. CCC(Cc1ccccc1)c1ccc(C(=O)N[C@@H](CCCNC(=N)N)C(=O)O)s1 (mixture of isomers)
5. N=C(N)NCCC[C@H](NC(=O)c1ccc(C(c2ccccc2)c2ccccc2)s1)C(=O)O

Output:
1: 6.85; 2: 8.52; 3: 7.40; 4: 6.70; 5: 7.07

----------
# Assay info: AUC (0 to 8 hrs) in Wistar rat at 1 mg/kg, iv by LC-MS/MS analysis
# Assay type: ADME, organism-based
# Design: time < 8 hr, dose 1 mg/kg, route intravenous
# Test conditions: in vivo
Observation type: AUC(0-t) at 8 h (ng·h/mL)
Answers are plain numbers, in ng·h/mL.

Item smiles	Unit annotation	AUC(0-t) at 8 h
Cc1cc(C(c2ccccc2)c2ccccc2)sc1C(=O)N[C@@H](CCCNC(=N)N)C(=O)O	ng·h/mL	779

Next compound, AUC(0-t) at 8 h to be filled in.
Input: Which AUC(0-t) at 8 h is reported for this compound? Cc1cc(C(c2ccc(Cl)cc2)c2ccc(Cl)cc2)sc1C(=O)N[C@@H](CCCNC(=N)N)C(=O)O
Output: 3800
